- Tested on: Plasmodium berghei
- measurement.description: Luciferase/luciferin-expressing antifolate-resistant parasites were used to infect a culture of HepG2 cells that were pre-incubated with compounds. Infected hepatocytes emit light due to the luciferase reaction. Assay results are presented as the percent inhibition of light emission compared to control. […]
- Type: functional
- condition: sporozoite, PBLUC_HILL_SLOPE 3.62, PBLUC_R_SQUARED 0.233, read-out: LUCIFERASE INFECTION ASSAY - IC50
quantity: pIC50
Schema: pIC50 number; meaning minus log10 of the concentration expressed in molar units.

I would be grateful if you could share the reported pIC50 for `CNC(=O)CN(C)Cc1c(O)c(C(=O)NCc2ccccc2)cc2ccccc12` .
5.06

###

- Tested on: Plasmodium berghei
- measurement.description: Luciferase/luciferin-expressing antifolate-resistant parasites were used to infect a culture of HepG2 cells that were pre-incubated with compounds. Infected hepatocytes emit light due to the luciferase reaction. Assay results are presented as the percent inhibition of light emission compared to control. […]
- Format: functional
- condition: sporozoite, HEPG2TOX_HILL_SLOPE 2.62, HEPG2TOX_R_SQUARED 0.103, PBLUC_HILL_SLOPE 2.21, PBLUC_R_SQUARED 0.632, read-out: LUCIFERASE INFECTION ASSAY - IC50
quantity: IC50 (nM)
The response must be a number in nM with no trailing unit.

Any idea what its IC50 is? The molecule is O=C1C(=O)N(CN2CCc3sccc3C2c2ccccc2)c2ccc(F)cc21 (stereo unspecified)
929

###

- Test system: Plasmodium berghei
- measurement.description: Luciferase/luciferin-expressing antifolate-resistant parasites were used to infect a culture of HepG2 cells that were pre-incubated with compounds. Infected hepatocytes emit light due to the luciferase reaction. Assay results are presented as the percent inhibition of light emission compared to control. […]
- Assay type: functional
- condition: sporozoite, HEPG2TOX_HILL_SLOPE 2.78, HEPG2TOX_R_SQUARED 0.915, PBLUC_HILL_SLOPE 3.55, PBLUC_R_SQUARED 0.653, read-out: LUCIFERASE INFECTION ASSAY - IC50
quantity: pIC50
pIC50 is a log-scale quantity: -log10 of the concentration expressed in molar.

Plasmodium berghei / pIC50 / `CC(C)c1ccc(NC(=O)c2snc3ccc(Cl)cc23)cc1` : value?
5.45

###

- System: Plasmodium berghei
- measurement.description: Luciferase/luciferin-expressing antifolate-resistant parasites were used to infect a culture of HepG2 cells that were pre-incubated with compounds. Infected hepatocytes emit light due to the luciferase reaction. Assay results are presented as the percent inhibition of light emission compared to control. […]
- Format: functional
- condition: sporozoite, HEPG2TOX_HILL_SLOPE 11.6, HEPG2TOX_R_SQUARED 0.535, PBLUC_HILL_SLOPE 4.15, PBLUC_R_SQUARED 0.775, read-out: LUCIFERASE INFECTION ASSAY - IC50
quantity: pIC50
To interpret pIC50, take it as minus log10 of a concentration measured in moles per litre.

Which pIC50 value belongs to `CCCNC(=O)/C(=C\c1cccc(Br)c1)c1nc2ccccc2[nH]1` ?
5.25

###

- Test system: Plasmodium berghei
- measurement.description: Luciferase/luciferin-expressing antifolate-resistant parasites were used to infect a culture of HepG2 cells that were pre-incubated with compounds. Infected hepatocytes emit light due to the luciferase reaction. Assay results are presented as the percent inhibition of light emission compared to control. […]
- Format: functional
- condition: sporozoite, FFLUC_HILL_SLOPE 12, FFLUC_R_SQUARED 0.305, PBLUC_HILL_SLOPE 10.1, PBLUC_R_SQUARED 0.389, read-out: LUCIFERASE INFECTION ASSAY - IC50
quantity: pIC50
Interpret pIC50 as the negative base-10 log of the concentration measured in mol/L.

Form field: reported pIC50 of `NNc1nn2c(=O)c3c(-c4ccccc4)csc3nc2c2ccccc12`
5.06
